System: MES-induced convulsions
Experiment: MES-induced convulsions model;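 also: significance by ANOVA with Dunnett test at p below 0.05 vs saline group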
Format: in vivo
Conditions: 10 mg/kg, i.p., mice, 30 min before stimulation; vs saline group
Text: Protection for the mice was defined as the reduction or abolition of the tonic hind limb extension (THLE) in the MES model in mice. Ear stimulation with alternating current (0.2 s, 60 Hz, 50 mA) was used to induce the seizures in mice. The reduction or abolition of the hind limb tonic extension (THLE) of mice was considered protective against the MES-induced seizures[29]^,[48]. […]
Measurement Kind: protection against MES-induced convulsions (reduction or abolition of THLE)

- Compound: "CCN(CC)CCCOc1ccc(-n2cnnc2)cc1.Cl [Compound 3a]"
  Result: "moderate protection"
- Compound: "c1ccc(-c2nncn2-c2ccc(OCCCN3CCCCC3)cc2)cc1 [Compound 3l]"
  Result: "moderate protection"

====

Reported % Antagonism 1 μM values for the following compounds.
target: H3R (Homo sapiens, UniProt Q9Y5N1); construct: expressed in transfected cells; experiment: CRE-driven luciferase reporter gene assay, H3R antagonistic activity; format: cell-based; conditions: 1 μM compound; HEK-293 cells expressing human H3R; mean ± SD of three experiments
Sequence (Q9Y5N1 whole entry): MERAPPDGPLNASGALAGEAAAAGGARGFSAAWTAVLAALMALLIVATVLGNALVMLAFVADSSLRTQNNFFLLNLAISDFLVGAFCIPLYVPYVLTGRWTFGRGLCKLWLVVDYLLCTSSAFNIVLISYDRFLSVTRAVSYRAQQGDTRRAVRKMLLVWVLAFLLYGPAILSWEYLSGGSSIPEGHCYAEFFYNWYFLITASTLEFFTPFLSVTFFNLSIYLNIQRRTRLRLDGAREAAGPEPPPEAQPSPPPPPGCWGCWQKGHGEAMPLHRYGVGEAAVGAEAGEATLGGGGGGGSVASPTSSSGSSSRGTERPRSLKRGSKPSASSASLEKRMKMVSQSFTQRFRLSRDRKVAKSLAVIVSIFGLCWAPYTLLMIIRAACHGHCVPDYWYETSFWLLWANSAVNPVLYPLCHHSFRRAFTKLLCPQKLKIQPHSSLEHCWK

- Compound: "O=C(c1ccc(OCCCc2cnc[nH]2)cc1)C1CC1 [CPX, ciproxifan, reference compound]"
  % Antagonism 1 μM: "63.05 ± 9.33%"
- Compound: "c1ccc(-c2ccc(-c3nncn3-c3ccc(OCCCN4CCCCC4)cc3)cc2)cc1"
  % Antagonism 1 μM: "3.36 ± 1.27%"
- Compound: "Cl.c1cc(-n2cnnc2)ccc1OCCCCN1CCCCC1"
  % Antagonism 1 μM: "90.52 ± 5.71%"
- Compound: "Cl.Cl.c1cc(-n2cnnc2)ccc1OCCCN1CCNCC1"
  % Antagonism 1 μM: "79.4 ± 4.50%"
- Compound: "c1cc(-n2cnnc2)ccc1OCCCN1CCCCC1"
  % Antagonism 1 μM: "239.79 ± 3.17%"
- Compound: "c1cc(-n2cnnc2)ccc1OCCCCCN1CCCCC1"
  % Antagonism 1 μM: "2.39 ± 13.85%"
- Compound: "Cl.c1cc(-n2cnnc2)ccc1OCCCN1CCCC1"
  % Antagonism 1 μM: "143.98 ± 16.16%"
- Compound: "c1ccc(-c2nncn2-c2ccc(OCCCN3CCCCC3)cc2)cc1"
  % Antagonism 1 μM: "169.04 ± 15.04%"
- Compound: "Clc1ccc(-c2nncn2-c2ccc(OCCCN3CCCCC3)cc2)cc1"
  % Antagonism 1 μM: "203.92 ± 8.44%"
- Compound: "Cl.c1cc(-n2cnnc2)ccc1OCCCN1CCOCC1"
  % Antagonism 1 μM: "20.24 ± 7.56%"
- Compound: "c1ccc(N2CCN(CCCOc3ccc(-n4cnnc4)cc3)CC2)cc1"
  % Antagonism 1 μM: "24.41 ± 6.30%"
- Compound: "CCCN(CCC)CCCOc1ccc(-n2cnnc2)cc1.Cl"
  % Antagonism 1 μM: "15.02 ± 4.03%"
- Compound: "Clc1ccc(CCCOCCCN2CCCCC2)cc1 [PIT, Pitolisant, reference compound]"
  % Antagonism 1 μM: "246.29 ± 21.48%"
- Compound: "c1ccc(C2CCN(CCCOc3ccc(-n4cnnc4)cc3)CC2)cc1"
  % Antagonism 1 μM: "16.45 ± 1.90%"
- Compound: "Cl.c1cc(-n2cnnc2)ccc1OCCN1CCCCC1"
  % Antagonism 1 μM: "94.20 ± 2.60%"
- Compound: "Cc1nncn1-c1ccc(OCCCN2CCCCC2)cc1.Cl"
  % Antagonism 1 μM: "183.54 ± 14.41%"
- Compound: "CCN(CC)CCCOc1ccc(-n2cnnc2)cc1.Cl"
  % Antagonism 1 μM: "223.76 ± 7.56%"
- Compound: "NC(=O)C1CCN(CCCOc2ccc(-n3cnnc3)cc2)CC1"
  % Antagonism 1 μM: "6.12 ± 2.05%"
- Compound: "CN1CCN(CCCOc2ccc(-n3cnnc3)cc2)CC1.Cl"
  % Antagonism 1 μM: "21.78 ± 3.04%"

====

- Chemical Structure: "Clc1ccc(-c2nncn2-c2ccc(OCCCN3CCCCC3)cc2)cc1"
  melting point: "165 to 167 °C"
- Chemical Structure: "c1ccc(C2CCN(CCCOc3ccc(-n4cnnc4)cc3)CC2)cc1"
  melting point: "124 to 126 °C"
- Chemical Structure: "c1cc(-n2cnnc2)ccc1OCCCN1CCCCC1"
  melting point: "249 to 252 °C"
- Chemical Structure: "Cl.c1cc(-n2cnnc2)ccc1OCCCCN1CCCCC1"
  melting point: "80 to 82 °C"
- Chemical Structure: "Cc1nncn1-c1ccc(OCCCN2CCCCC2)cc1.Cl"
  melting point: "240 to 242 °C"
- Chemical Structure: "c1ccc(N2CCN(CCCOc3ccc(-n4cnnc4)cc3)CC2)cc1"
  melting point: "172 to 174 °C"
- Chemical Structure: "NC(=O)C1CCN(CCCOc2ccc(-n3cnnc3)cc2)CC1"
  melting point: "196 to 198 °C"
- Chemical Structure: "Cl.c1cc(-n2cnnc2)ccc1OCCN1CCCCC1"
  melting point: "85 to 87 °C"
- Chemical Structure: "c1ccc(-c2ccc(-c3nncn3-c3ccc(OCCCN4CCCCC4)cc3)cc2)cc1"
  melting point: "66 to 68 °C"
- Chemical Structure: "c1ccc(-c2nncn2-c2ccc(OCCCN3CCCCC3)cc2)cc1"
  melting point: "88 to 90 °C"
- Chemical Structure: "Cl.c1cc(-n2cnnc2)ccc1OCCCN1CCCC1"
  melting point: "120 to 122 °C"
- Chemical Structure: "Cl.c1cc(-n2cnnc2)ccc1OCCCN1CCOCC1"
  melting point: "237 to 239 °C"
- Chemical Structure: "CCCN(CCC)CCCOc1ccc(-n2cnnc2)cc1.Cl"
  melting point: "180 to 183 °C"
- Chemical Structure: "Cl.Cl.c1cc(-n2cnnc2)ccc1OCCCN1CCNCC1"
  melting point: "146 to 148 °C"
